# assay overview: BSK_SAg_Proliferation: Cell Proliferation Assessment in the BioMAP Diversity Plus: SAg Assay (AID 2283095);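 note: relative cell number as total protein by SRB absorbance in sub-confluent culture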
# condition context: primary human HUVEC with PBMC
Active and inactive are the calls of the source. Rule for the calls: active = hit-call score of the fitted dose curve at least 0.9, where 1 is the maximum; inactive = score below 0.9.
// one of class 1 for active, class 0 for inactive, no free text

Consider the worked cases shown below.
- molecule: "CC(=O)c1ccccc1"
  label: "class 0"
- molecule: "OCc1c[nH]c2ccccc12"
  label: "class 1"
- molecule: "O=C(O)[C@H](O)[C@@H](O)C(=O)O"
  label: "class 0"
- molecule: "OCCNCCO"
  label: "class 0"
- molecule: "O=C(O)c1ccc2c(c1)nc(C(=O)NC1CCN(C3CC3)CC1)n2Cc1cc(-c2ccc(Cl)s2)on1"
  label: "class 0"

## Input # outcome recorded in this test, key = `FC(F)(F)COC(OCC(F)(F)F)OCC(F)(F)F`
## Output class 0

## Input Would you mind doing `CCCC(CCC)C(=O)O` as well?
## Output class 0

## Input Would you mind doing `C=CN1CCCC1=O` as well?
## Output class 0

----------
# Read-out: Thrombomodulin, THBD (gene 7056)
# assay overview: BSK_3C_Thrombomodulin: BioMAP Diversity Plus: 3C Assay for Thrombomodulin Biomarker Activity (AID 2283029)
# condition context: primary human endothelial cells (HUVEC); actives raise or lower the signal
The source made the active and inactive calls. The calls were made as follows: active = hit-call score of the fitted dose curve at least 0.9, where 1 is the maximum; inactive = score below 0.9.
// one of active, inactive, no free text

- molecule: "O=C(O)c1cccc(C[C@@H]2COc3ccc(OCc4nc5cc(F)ccc5s4)cc3[C@@H]2O)c1"
  label: "inactive"
- molecule: "OCCNCCO"
  label: "inactive"
- molecule: "OCCC(F)(F)C(F)(F)C(F)(F)C(F)(F)F"
  label: "inactive"

## Input # outcome recorded in this test, key = `Cc1nccn1-c1ccc(Sc2cccc(C3(C(N)=O)CCOCC3)c2)cc1`
## Output active

## Input Would you mind doing `CCCOc1ccc(S(=O)(=O)N2CCN(CC)CC2)cc1-c1nc2c(CC)n(Cc3ccccn3)nc2c(=O)[nH]1` as well?
## Output inactive

## Input Would you mind doing FC(F)C(F)(F)COCC1CO1 (centres undefined) as well?
## Output inactive

## Input Would you mind doing `O=C(O)c1ccc2c(c1)nc(C(=O)NC1CCN(C3CC3)CC1)n2Cc1cc(-c2ccc(Cl)s2)on1` as well?
## Output inactive

## Input Would you mind doing `c1ccc2cc3ccccc3cc2c1` as well?
## Output inactive

----------
# target entity: human Serotonin, 5-Hydroxytryptamine Receptor 7 (5HT7), HTR7 (gene 3363) (UniProt P34969)
# Sequence (P34969 whole entry, looked up): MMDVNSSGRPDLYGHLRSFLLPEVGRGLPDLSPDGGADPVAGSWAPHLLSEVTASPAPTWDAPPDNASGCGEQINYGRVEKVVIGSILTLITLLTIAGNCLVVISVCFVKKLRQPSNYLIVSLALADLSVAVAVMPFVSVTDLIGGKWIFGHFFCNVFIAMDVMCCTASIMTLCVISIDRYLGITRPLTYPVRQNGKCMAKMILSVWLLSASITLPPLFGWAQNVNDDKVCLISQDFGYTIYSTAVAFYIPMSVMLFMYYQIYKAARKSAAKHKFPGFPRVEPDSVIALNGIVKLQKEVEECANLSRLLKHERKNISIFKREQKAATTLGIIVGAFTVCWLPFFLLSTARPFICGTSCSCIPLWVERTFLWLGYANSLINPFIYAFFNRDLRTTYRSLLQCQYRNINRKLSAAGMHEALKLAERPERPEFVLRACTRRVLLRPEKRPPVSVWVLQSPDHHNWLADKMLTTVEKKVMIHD
# assay overview: NVS_GPCR_h5HT7: NovaScreen (NVS) G Protein-Coupled Receptor Assay for human Serotonin, 5-Hydroxytryptamine Receptor 7 (5HT7) (AID 2283255);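 note: hits reduce specific radioligand binding relative to DMSO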
Results filed as inconclusive are left out. Active and inactive are the calls of the source. How the source made its calls: active means hit-call score of the fitted dose curve at least 0.9, where 1 is the maximum; inconclusive means response in the unintended direction; inactive means score below 0.9.
measurement kind: AC50

- molecule: "CCCCCCCCCC"
  measurement kind: "AC50"
  result: "inactive"
- molecule: "C=CCc1cc(S(=O)(=O)c2ccc(O)c(CC=C)c2)ccc1O"
  measurement kind: "AC50"
  result: "9.39 µM (active)"
- molecule: "O=S(=O)(O)c1ccc(N=Nc2c(O)ccc3cc(S(=O)(=O)O)ccc23)cc1"
  measurement kind: "AC50"
  result: "inactive"
- molecule: "CCCCCCCCN(C)C"
  measurement kind: "AC50"
  result: "6.63 µM (active)"
- molecule: "c1ccc(C(O[C@@H]2CCCN(CCc3ccc4c(c3)OCO4)C2)c2ccccc2)cc1"
  measurement kind: "AC50"
  result: "0.99 µM (active)"

Okay, next one:
## Input What AC50 appears in the records for this molecule with human Serotonin, 5-Hydroxytryptamine Receptor 7 (5HT7), HTR7 (gene 3363) (UniProt P34969)? `CCn1nc(C)c2c1C(=O)NCC(c1ccc(O)cc1)=N2`
## Output 25 µM (active)
